Sourced from ChEMBL document CHEMBL5042498

- assay: Elimination half life in Sprague-Dawley rat plasma 10 mg/kg, ip measured upto 24 hrs post dose by LC-MS/MS analysis
observed property: half-life

INSERT INTO results (smiles_notation, result) VALUES
  ('O=C(NCCc1cccc(Cl)c1)Nc1ccc(Cl)cc1', '37.8 min');

* * *

Measured IC50, listed per entry.
- tested on: Cannabinoid receptor 1 (Homo sapiens)
- Sequence (P21554 whole entry): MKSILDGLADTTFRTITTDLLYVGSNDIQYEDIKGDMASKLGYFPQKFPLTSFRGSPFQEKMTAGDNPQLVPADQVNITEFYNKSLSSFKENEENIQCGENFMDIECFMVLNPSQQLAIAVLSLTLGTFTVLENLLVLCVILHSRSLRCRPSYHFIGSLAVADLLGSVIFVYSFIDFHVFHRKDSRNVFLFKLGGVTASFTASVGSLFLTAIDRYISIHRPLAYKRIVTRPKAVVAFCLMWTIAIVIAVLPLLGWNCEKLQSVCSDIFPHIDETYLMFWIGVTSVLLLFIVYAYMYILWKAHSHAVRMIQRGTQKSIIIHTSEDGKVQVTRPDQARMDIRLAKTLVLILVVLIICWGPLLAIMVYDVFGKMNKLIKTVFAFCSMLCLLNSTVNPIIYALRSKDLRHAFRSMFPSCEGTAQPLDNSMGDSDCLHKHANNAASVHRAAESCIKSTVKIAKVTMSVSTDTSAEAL
- assay: Allosteric antagonist activity at human CB1 receptor expressed in CHO-RD-HGA16 cells overexpressing Galpha16 assessed as inhibition of CP55940-stimulated calcium mobilization incubated for 15 mins FLIPR assay
- Type: functional, cell-based
observed property: IC50 (nM)

INSERT INTO measurements (smiles_notation, observed_property, qualifier, numeric_value) VALUES
  ('CS(=O)(=O)c1ccc(CCNC(=O)Nc2ccc(Cl)cc2)cc1', 'IC50', '>', 10000),
  ('Cc1cc(C)cc(CCNC(=O)Nc2ccc(Cl)cc2)c1', 'IC50', '=', 28.8),
  ('O=C(NCCc1cccc(OC(F)(F)F)c1)Nc1ccc(Cl)cc1', 'IC50', '=', 93.3),
  ('COc1ccc(CCNC(=O)Nc2ccc(Cl)cc2)cc1', 'IC50', '=', 214),
  ('COc1cccc(CCNC(=O)Nc2ccc(Cl)cc2)c1', 'IC50', '=', 447),
  ('Cc1cccc(CCNC(=O)Nc2ccc(Cl)cc2)c1', 'IC50', '=', 41.7),
  ('COc1ccc(CCNC(=O)Nc2ccc(Cl)cc2)cc1OC', 'IC50', '=', 1780),
  ('O=C(NCCc1ccc(C(F)(F)F)cc1)Nc1ccc(Cl)cc1', 'IC50', '=', 178),
  ('O=C(NCCc1ccc([N+](=O)[O-])cc1)Nc1ccc(Cl)cc1', 'IC50', '=', 85.1),
  ('O=C(NCCc1ccccc1)Nc1ccc(Cl)cc1', 'IC50', '=', 186),
  ('O=C(NCCc1ccccc1C(F)(F)F)Nc1ccc(Cl)cc1', 'IC50', '=', 126),
  ('Cc1ccc(CCNC(=O)Nc2ccc(Cl)cc2)cc1', 'IC50', '=', 135),
  ('N#Cc1cccc(CCNC(=O)Nc2ccc(Cl)cc2)c1', 'IC50', '=', 145),
  ('O=C(NCCc1cccc(Cl)c1)Nc1ccc(Cl)cc1', 'IC50', '=', 28.8),
  ('O=C(NCCc1ccc(N2CCCCC2)cc1)Nc1ccc(Cl)cc1', 'IC50', '=', 912),
  ('COc1cc(CCNC(=O)Nc2ccc(Cl)cc2)ccc1O', 'IC50', '>', 10000),
  ('Cc1ccc(CCNC(=O)Nc2ccc(Cl)cc2)cc1C', 'IC50', '=', 47.9),
  ('O=C(NCCc1c(F)cccc1Cl)Nc1ccc(Cl)cc1', 'IC50', '=', 398),
  ('O=C(NCCc1cccc(F)c1)Nc1ccc(Cl)cc1', 'IC50', '=', 51.3),
  ('O=C(NCCc1cc(Cl)cc(Cl)c1)Nc1ccc(Cl)cc1', 'IC50', '=', 24),
  ('COc1cc(CCNC(=O)Nc2ccc(Cl)cc2)cc(OC)c1', 'IC50', '=', 1070),
  ('O=C(NCCc1ccc(Cl)cc1Cl)Nc1ccc(Cl)cc1', 'IC50', '=', 166),
  ('CN(C)c1ccc(CCNC(=O)Nc2ccc(Cl)cc2)cc1', 'IC50', '=', 257),
  ('O=C(NCCc1ccccc1Cl)Nc1ccc(Cl)cc1', 'IC50', '=', 229),
  ('N#Cc1ccc(CCNC(=O)Nc2ccc(Cl)cc2)cc1', 'IC50', '=', 437),
  ('O=C(NCCc1ccc(-c2ccccc2)cc1)Nc1ccc(Cl)cc1', 'IC50', '=', 871);
